Test: LAP Rat PK study, SQ and IM injections (IV values given for reference)
Conditions: in vivo, IM, dose 5 mg/kg, Sprague-Dawley rats, n=3
ENDPOINT_NAME: Tmax (h)
Answer with a number only, understood to be in h.

Task: I would be grateful if you could share the reported Tmax for CC(C)C1=C2[C@H]3CC[C@@H]4[C@@]5(C)CC[C@H](OC(=O)CC(C)(C)C(=O)O)C(C)(C)[C@@H]5CC[C@@]4(C)[C@]3(C)CC[C@@]2([C@@H](O)CN(CCN(C)C)Cc2ccc(Cl)cc2)CC1=O .
Output: 5.3

* * *

Assay: LAP Rat PK study, SQ and IM injections (IV values given for reference)
Set-up: species or system Sprague-Dawley rats
Details: Sprague-Dawley, in vivo, rat (FIG. 1), read-out: T1/2 IV (converted)
ENDPOINT_NAME: half-life
Answer by giving the amount and then stating its unit.

Task: Which value of half-life has been reported for CC(C)C1=C2[C@H]3CC[C@@H]4[C@@]5(C)CC[C@H](OC(=O)CC(C)(C)C(=O)O)C(C)(C)[C@@H]5CC[C@@]4(C)[C@]3(C)CC[C@@]2([C@@H](O)CN(CCN(C)C)Cc2ccc(Cl)cc2)CC1=O [compound of Formula I] in the records?
Output: 3.4 h

* * *

Assay: LAP Rat PK study, SQ and IM injections (IV values given for reference)
Conditions: in vivo, sc, SQ, dose 5 mg/kg, Sprague-Dawley rats, t = 24 days
ENDPOINT_NAME: AUC(0-t) (ng·h/mL)
Answer format: numeric, ng·h/mL implied, no suffix.

Task: Entry CC(C)C1=C2[C@H]3CC[C@@H]4[C@@]5(C)CC[C@H](OC(=O)CC(C)(C)C(=O)O)C(C)(C)[C@@H]5CC[C@@]4(C)[C@]3(C)CC[C@@]2([C@@H](O)CN(CCN(C)C)Cc2ccc(Cl)cc2)CC1=O : reported AUC(0-t) = ?
Output: 8000

* * *

Experiment: LAP Dog PK study, SQ and IM injections (IV values given for reference)
Conditions: in vivo, IM, dose 5 mg/kg, Beagle dogs, n=3
ENDPOINT_NAME: half-life (h)
Write down the numeric answer in h and omit the unit.

Task: Bench note: what half-life did CC(C)C1=C2[C@H]3CC[C@@H]4[C@@]5(C)CC[C@H](OC(=O)CC(C)(C)C(=O)O)C(C)(C)[C@@H]5CC[C@@]4(C)[C@]3(C)CC[C@@]2([C@@H](O)CN(CCN(C)C)Cc2ccc(Cl)cc2)CC1=O [compound of Formula I] show?
Output: 118

* * *

Experiment: LAP Dog PK study, SQ and IM injections (IV values given for reference)
Conditions: in vivo, sc, SQ, dose 5 mg/kg, Beagle dogs, t = 40 days
ENDPOINT_NAME: AUC(0-t)
Please don't drop the unit; write it after the number.

Task: Request the reported AUC(0-t) associated with CC(C)C1=C2[C@H]3CC[C@@H]4[C@@]5(C)CC[C@H](OC(=O)CC(C)(C)C(=O)O)C(C)(C)[C@@H]5CC[C@@]4(C)[C@]3(C)CC[C@@]2([C@@H](O)CN(CCN(C)C)Cc2ccc(Cl)cc2)CC1=O [compound of Formula I]
Output: 17400 ng·h/mL

* * *

Test: LAP Rat PK study, SQ and IM injections (IV values given for reference)
Settings: in vivo, IM, dose 5 mg/kg, Sprague-Dawley rats, t printed as '= days' (no number)
ENDPOINT_NAME: AUC(0-t) (ng·h/mL)
Provide only the numeric value, understood in ng·h/mL.

Task: Quick one: AUC(0-t) for CC(C)C1=C2[C@H]3CC[C@@H]4[C@@]5(C)CC[C@H](OC(=O)CC(C)(C)C(=O)O)C(C)(C)[C@@H]5CC[C@@]4(C)[C@]3(C)CC[C@@]2([C@@H](O)CN(CCN(C)C)Cc2ccc(Cl)cc2)CC1=O [compound of Formula I] ?
Output: 7700
